Molecular target: HLA-A*23:01
Experiment: IEDB peptide-MHC binding, purified MHC/competitive/radioactivity; filed as Kd, often an IC50 or EC50 that approximates it; bounds were set here for any values at or beyond the usual limits of such assays
Settings: source organism: Dengue virus 3 Martinique/1243/1999
measured-property: Kd
Record the result as a number with its unit.

Requested read-out: Kd. Entry: `NWASVKKDLI`
287 nM

====

For each record, write down the corresponding Kd.
Target: HLA-B*27:05
Experiment: IEDB peptide-MHC binding, purified MHC/competitive/fluorescence; filed as Kd, often an IC50 or EC50 that approximates it; bounds were set here for any values at or beyond the usual limits of such assays
Details: source organism: Escherichia coli 536

# seq-text, Kd
records = [
    ("AREIRDQGY", "≥ 20 µM"),
]

What measured Kd goes with `KLYPNVDFY` ?
≥ 20 µM

====

Target: HLA-A*02:11
Assay: IEDB peptide-MHC binding, purified MHC/direct/fluorescence; filed as Kd, often an IC50 or EC50 that approximates it; bounds were set here for any values at or beyond the usual limits of such assays
Details: source organism: Rickettsia typhi
pKd: −log10 of the molar value.
measured-property: pKd

pKd lookup needed for `ELYPTVNTY` , thanks.
≤ 4.70

====

Target: HLA-B*57:01
Experiment: IEDB peptide-MHC binding, purified MHC/direct/fluorescence; filed as Kd, often an IC50 or EC50 that approximates it; bounds were set here for any values at or beyond the usual limits of such assays
Details: source organism: dengue virus type 4
measured-property: pKd
One number for each entry, as −log10 of the molar value.

# pKd lookup, item `STMPLVMAW`
8.28

====

Target: HLA-B*58:01
Assay: IEDB peptide-MHC binding, purified MHC/direct/fluorescence; filed as Kd, often an IC50 or EC50 that approximates it; bounds were set here for any values at or beyond the usual limits of such assays
Conditions: source organism: Brucella melitensis
measured-property: Kd

For each of the sequences below, state Kd.
1. ALFEDYPGC
2. CTDPPLLSV

1: ≥ 20 µM; 2: ≥ 20 µM

====

Molecular target: HLA-A*03:01
Test: IEDB peptide-MHC binding, purified MHC/competitive/radioactivity; filed as Kd, often an IC50 or EC50 that approximates it; bounds were set here for any values at or beyond the usual limits of such assays
Conditions: source organism: Lassa virus Josiah
pKd: −log10 of the molar value.
measured-property: pKd

Answered cases to consult:
# seq-text, measured-property, value-observed
records = [
    ("TCQGSDDIR", "pKd", "≤ 4.11"),
    ("AMSCDFNGGK", "pKd", 5.70),
]

We next turn to a different sequence, shown below.
What pKd appears in the records for this sequence with HLA-A*03:01? `FCNLSDAHK`
≤ 4.44

====

Target: HLA-B*27:03
Experiment: IEDB peptide-MHC binding, purified MHC/direct/fluorescence; filed as Kd, often an IC50 or EC50 that approximates it; bounds were set here for any values at or beyond the usual limits of such assays
Conditions: source organism: Cryptosporidium parvum Iowa II
measured-property: Kd

Bench note: what Kd did `KQMSQPYAV` show?
≥ 20 µM

====

Target: HLA-A*01:01
Assay: IEDB peptide-MHC binding, purified MHC/direct/fluorescence; filed as Kd, often an IC50 or EC50 that approximates it; bounds were set here for any values at or beyond the usual limits of such assays
Conditions: source organism: Cryptosporidium parvum
measured-property: Kd

Any idea what its Kd is? The sequence is `KHNSAESAK`
≥ 20 µM

====

Field: IC50. Provide a value for each of the sequences that follow.
Target: HLA-A*02:01
Assay: IEDB peptide-MHC binding, purified MHC/competitive/radioactivity; bounds were set here for any values at or beyond the usual limits of such assays
Details: source organism: Homo sapiens
Numbers only, in nM.

# seq-text, IC50 / nM
records = [
    ("SCSRAIPQV", 1470),
]

Here's the next entry for you.
I have this sequence here, `RQASLSISV` , and I need its recorded IC50.
284

====

Biological target: HLA-B*48:01
Assay: IEDB peptide-MHC binding, purified MHC/direct/fluorescence; filed as Kd, often an IC50 or EC50 that approximates it; bounds were set here for any values at or beyond the usual limits of such assays
Settings: source organism: Marburg virus - Musoke, Kenya, 1980
pKd: −log10 of the molar value.
measured-property: pKd

// query pKd value for entry `AEALLADGL`
≤ 4.70

====

Biological target: HLA-A*03:01
Assay: IEDB peptide-MHC binding, purified MHC/competitive/radioactivity; filed as Kd, often an IC50 or EC50 that approximates it; bounds were set here for any values at or beyond the usual limits of such assays
Details: source organism: Lassa virus GA391
measured-property: Kd (nM)
Numbers only, in nM.

// query Kd value for entry `LMSIISTFH`
2230

====

Biological target: HLA-A*68:02
Experiment: IEDB peptide-MHC binding, purified MHC/competitive/radioactivity; filed as Kd, often an IC50 or EC50 that approximates it; bounds were set here for any values at or beyond the usual limits of such assays
Conditions: source organism: Triticum aestivum
measured-property: pKd
Answers are plain numbers, as −log10 of the molar value.

Returns the measured pKd for the input sequence. Input: `SQCQAIHNV`
5.24

====

What Kd was measured for each of the following?
Target: HLA-A*02:06
Assay: IEDB peptide-MHC binding, purified MHC/competitive/radioactivity; filed as Kd, often an IC50 or EC50 that approximates it; bounds were set here for any values at or beyond the usual limits of such assays
Conditions: source organism: Vaccinia virus WR

# count of solved cases: 10
# seq-text, value-observed
records = [
    ("DVGCLLTDTI", "9990 nM"),
    ("LTSVDIETA", "311 nM"),
    ("LMLHNPTSET", "11100 nM"),
    ("EVTPEYIKDL", "7670 nM"),
    ("LTPFEKEFT", "≥ 77100 nM"),
    ("DLLLPSTDV", "1060 nM"),
    ("EVIERINLLV", "300 nM"),
    ("IALCKVTVPT", "652 nM"),
    ("TLIQYRQQL", "1880 nM"),
    ("DLNAVTTNNL", "7520 nM"),
]

Dear colleague, could you send me Kd for each of the items below? Thanks.
1. YVILKDPRI
2. ILQMREIIT
3. EQGDIALAL

1. 11.7 nM
2. 1230 nM
3. 4770 nM

State the recorded Kd for every item in the following list.
1. ATLNTLITL
2. MLNRVQILM
3. LVMDKNHAI
4. GILIYDDNI
5. DAIKSNNHLT

["9.59 nM", "2560 nM", "103 nM", "13300 nM", "≥ 69800 nM"]

Return reported Kd values for all items listed beneath this line.
1. LLWFLTGTFV
2. NIDSIMSMM
3. GVLPEETNI
4. FTKDGKLDDT
5. KTPLYYLSGT
6. DVFRPLFDFV
7. MISTYPGNT

1: 18 nM; 2: 4720 nM; 3: 573 nM; 4: 898 nM; 5: 1420 nM; 6: 232 nM; 7: ≥ 25700 nM

====

Give Kd for every item shown.
Molecular target: HLA-A*02:01
Test: IEDB peptide-MHC binding, purified MHC/competitive/radioactivity; filed as Kd, often an IC50 or EC50 that approximates it; bounds were set here for any values at or beyond the usual limits of such assays
Conditions: source organism: Dengue virus 2 Jamaica/1409/1983
Numbers only, in nM.

# seq-text, value-observed
data = [
    ("LIFILLTAV", 74.4),
]

Any idea what its Kd is? The sequence is `TLLLLTLLAT`
141

====

Biological target: HLA-A*03:01
Experiment: IEDB peptide-MHC binding, purified MHC/direct/fluorescence; filed as Kd, often an IC50 or EC50 that approximates it; bounds were set here for any values at or beyond the usual limits of such assays
Details: source organism: Vibrio cholerae
measured-property: Kd

API: value(readout= Kd, system= HLA-A*03:01, query= `AENKKFKLH` )
≥ 20 µM

====

Target: HLA-A*02:12
Experiment: IEDB peptide-MHC binding, purified MHC/competitive/fluorescence; filed as Kd, often an IC50 or EC50 that approximates it; bounds were set here for any values at or beyond the usual limits of such assays
Conditions: source organism: Shigella dysenteriae Sd197
pKd: −log10 of the molar value.
measured-property: pKd

What does the record list as pKd for `IEDDEIIWV` ?
≤ 4.70

====

Biological target: HLA-B*18:01
Experiment: IEDB peptide-MHC binding, purified MHC/competitive/fluorescence; filed as Kd, often an IC50 or EC50 that approximates it; bounds were set here for any values at or beyond the usual limits of such assays
Conditions: source organism: Lechiguanas virus
pKd: −log10 of the molar value.
measured-property: pKd

pKd of `HTQAIEGAW` on HLA-B*18:01?
≤ 4.70
